This collection of values is drawn from PubChem BioAssay (NCI).

Tested on: LXFL 529 NSCLC
ASSAY_NAME: NCI tumour cell line growth inhibition, 48 h
The molecules listed here are annotated with their TGI.

MOLECULE: O=C(CC1(O)C(=O)Nc2ccccc21)c1ccccc1Cl (stereo unspecified)
TGI: > 100 µM
//
MOLECULE: CCCCc1c2c(nc3c1CCCC3O)/C(=C/c1ccccc1)CCC2 (stereo unspecified)
TGI: > 100 µM
//
MOLECULE: CC(C)(C)NN=C1C(C)(C)C(=NNC(C)(C)C)C1(C)C
TGI: > 100 µM

Query TGI for `CCCn1c(SCC)c2ccccc2c1-c1nc(F)nc(F)n1`
> 100 µM

Query TGI for `C=C/C=C(\NC(=O)C(Cl)(Cl)Cl)[Si](C)(C)C`
> 100 µM

Query TGI for `NC(N)=NS(=O)(=O)c1ccc(NCc2c3ccccc3nc3ccccc23)cc1`
44.3 µM

---

Test system: KM12 colon
ASSAY_NAME: NCI tumour cell line growth inhibition, 48 h
MEASURE: log10 TGI (log10 of the value in µM)
Annotation: log10 of TGI, µM basis.

The following compounds have reported results that may help.
COMPOUND: C/C(=N\NC(=O)c1ccncc1)c1ccc2ccccc2c1O
MEASUREMENT: 1.78
//
COMPOUND: C=C1C[C@](OC)([C@H](O)C(=O)N[C@@H](OC)[C@@H]2C[C@@H](O)C(C)(C)[C@@H](C[C@@H](COC)OC)O2)O[C@H](C)[C@@H]1C
MEASUREMENT: -2.47
//
COMPOUND: COC(=O)C1(Cc2ccc3c(c2)CCC3)Cc2ccc3c(c2C1O)CCC3 (stereo unspecified)
MEASUREMENT: 1.59

Query log10 TGI for CC(C)(C)[Si](C)(C)OCC1OC(n2cnc3c(NC(=O)c4ccccc4)ncnc32)CC1O (stereo unspecified)
1.94

Query log10 TGI for CC(C)C1(C)N=C(C(F)(F)F)c2cc(C(=O)C(F)(F)F)c3ccccc3c2N1 (stereo unspecified)
1.10

Query log10 TGI for `Cc1cc2cc3cc(C)c(N(C)C)cc3nc2cc1N(C)C`
0.79

---

Tested on: COLO 205 colon
ASSAY_NAME: NCI tumour cell line growth inhibition, 48 h
MEASURE: TGI (µM)
Enter your answer as a number in µM; do not include the unit.

The following compounds have reported results that may help.
COMPOUND: CCNCC(=O)O[C@]1(CC)C(=O)OCc2c1cc1n(c2=O)Cc2cc3ccccc3nc2-1
MEASUREMENT: 16.5

COMPOUND: O=C(NNC(=S)Nc1ccccc1)c1ccccc1Nc1ccccc1C(=O)NNC(=S)Nc1ccccc1
MEASUREMENT: 41.5

COMPOUND: COc1cccc(C2C(C#N)=C(N)Oc3cc(N)ccc32)c1 (stereo not drawn)
MEASUREMENT: 2.09

# context switch: different compound, same TGI
Query TGI for CN(C)c1ccc(C(=C2C=CC(=[N+](C)C)C=C2)c2ccc(N(C)C)cc2)cc1 (tested in a mixture with another compound)
0.0519

---

The compounds listed here are annotated with their TGI.
Tested on: SR leukemia
ASSAY_NAME: NCI tumour cell line growth inhibition, 48 h

COMPOUND: CC(=O)Nc1ccc(Sc2ccc([N+](=O)[O-])o2)cc1
TEST_SYSTEM: SR leukemia
TGI: 12.6 µM

Report the value of TGI obtained on SR leukemia for `O=C1C(Br)=CC2(C=C1Br)CCN=c1c2c(O)c2nc3ccccc3c3ccnc1c23` .
5.83 µM

Report the value of TGI obtained on SR leukemia for CC1(c2nc3cc(Cl)c(Cl)cc3[nH]2)CCC(CO)C(C)(C)O1 (stereo unspecified) .
> 100 µM

---

The compounds listed here are annotated with their TGI.
Test system: NCI-H460 lung
ASSAY_NAME: NCI tumour cell line growth inhibition, 48 h

COMPOUND: Nc1nc(SCCNC(=O)CCc2ccc(O)cc2)nc2c1ncn2C1OC(CO)C(O)C1O (stereo not given)
TEST_SYSTEM: NCI-H460 lung
TGI: > 203 µM
//
COMPOUND: Cc1ccc(NC(=O)NC(=O)c2ccc([N+](=O)[O-])cc2[N+](=O)[O-])cc1Oc1ncc(Cl)cn1
TEST_SYSTEM: NCI-H460 lung
TGI: 14.8 µM
//
COMPOUND: N#CCCN(CCC#N)c1ccc(C(N=Nc2ccccc2)=Nc2ccccc2)cc1
TEST_SYSTEM: NCI-H460 lung
TGI: > 100 µM

Query TGI for `CCc1n[nH]c(=O)n1/N=C/c1ccccc1Cl`
> 100 µM

Query TGI for `CC(=O)Oc1cc(OC(C)=O)c2c(=O)c3ccccc3[nH]c2c1`
> 100 µM

Query TGI for `Cc1cc(C)nc(NS(=O)(=O)c2ccc(Nc3c4ccccc4nc4c(C(=O)NCCCN(CCO)CCO)cccc34)cc2)n1`
44 µM

Query TGI for `CC(C)[C@@]12C[C@@H](OC(=O)[C@H]3CO3)[C@@](C)(O1)[C@@H]1CC[C@@H](C)[C@H]1[C@@H]2OC(=O)/C=C/c1ccccc1`
42.5 µM

Query TGI for `NCCCNc1nc2ccccc2c2c(=O)c3cc(C(F)(F)F)ccc3sc12`
3.17 µM

---

Test system: NCI-H226 lung
ASSAY_NAME: NCI tumour cell line growth inhibition, 48 h
MEASURE: TGI

MOLECULE: CCCCc1c2c(nc3c1CCCC3O)/C(=C/c1ccccc1)CCC2 (configuration not stated)
MEASUREMENT: 68 µM

Report the value of TGI obtained on NCI-H226 lung for COCC1CCCN1c1ccc(/C=C(/C#N)C(N)=S)cc1 (configuration not stated) .
> 100 µM

Report the value of TGI obtained on NCI-H226 lung for `COc1ccccc1-n1c(-c2cc(O)ccc2C)cn2c3c(=O)[nH]c(=O)n(C)c3nc12` .
> 100 µM

Report the value of TGI obtained on NCI-H226 lung for `CCOc1ccc([C@@H]2[C@@H](Oc3ccccc3)C(=O)N2c2cc(OC)c(OC)c(OC)c2)cc1` .
> 100 µM

Report the value of TGI obtained on NCI-H226 lung for `O=C1OCC(c2cccs2)=C1Cl` .
95.5 µM

Report the value of TGI obtained on NCI-H226 lung for `Cc1cc2cc3cc(C)c(N(C)C)cc3nc2cc1N(C)C` .
24 µM

---

System: SK-MEL-2 melanoma
ASSAY_NAME: NCI tumour cell line growth inhibition, 48 h; in the data active = GI50 below about 0.43 µM; inactive = the rest
Choose the fitting class; nothing outside label 1 for active, label 0 for inactive is accepted.

Take a look at these entries with their results.
MOLECULE: COc1cc(C(=O)/C=C/c2cc(C(=O)c3cc(OC)c(OC)c(OC)c3)ccc2OC)ccc1N
TEST_SYSTEM: SK-MEL-2 melanoma
GROUP: label 0
--
MOLECULE: CC(=O)Nc1ccc(Sc2ccc([N+](=O)[O-])o2)cc1
TEST_SYSTEM: SK-MEL-2 melanoma
GROUP: label 0
--
MOLECULE: COc1ccc(-c2ccc(/C=N/n3c(COc4ccccc4Cl)nn(CN4CCN(C)CC4)c3=S)o2)c([N+](=O)[O-])c1
TEST_SYSTEM: SK-MEL-2 melanoma
GROUP: label 0

How was `COC(=O)c1ccc2c(c1)nc(-c1cc3ccccc3[nH]c1=O)n2-c1cc(C(C)(C)C)[nH]n1` classified in this test?
label 0

How was `Cc1cccc(Oc2nccc(-c3c(-c4ccc(F)cc4)ncn3C3CCNCC3)n2)c1C` classified in this test?
label 0

---

Tested on: UACC-257 melanoma
ASSAY_NAME: NCI tumour cell line growth inhibition, 48 h
MEASURE: TGI

MOLECULE: COc1ccc(C2C3C(=O)C=CC(=O)C3[C@@H]2C)cc1OC (stereo partly specified)
MEASURE: TGI
MEASUREMENT: > 100 µM

MOLECULE: C1CCN(CCC2CCCCN2)CC1 (stereo unspecified)
MEASURE: TGI
MEASUREMENT: > 100 µM

Query TGI for `NC(=O)C1=NNc2ccccc2C(=O)N1c1ccccc1`
> 100 µM

Query TGI for COc1cc(C2C(Cl)C(=O)N2NC(=O)c2ccccc2O)ccc1O (stereo unspecified)
> 100 µM

Query TGI for `CCOC(=O)c1csc(NC(=O)CCN2CCCCC2)n1`
> 100 µM

Query TGI for `Cc1cc2cc3cc(C)c(N(C)C)cc3nc2cc1N(C)C`
21.8 µM

---

System: NCI/ADR-RES ovarian
ASSAY_NAME: NCI tumour cell line growth inhibition, 48 h
MEASURE: TGI

The following compounds have reported results that may help.
COMPOUND: Cc1ccc(-c2c(C#N)c(S)n(NS(=O)(=O)c3ccc(C)cc3)c(=O)c2C#N)cc1
TGI: 77.9 µM
//
COMPOUND: CC1(c2nc3cc(Cl)c(Cl)cc3[nH]2)CCC(CO)C(C)(C)O1 (stereo not given)
TGI: 44.5 µM
//
COMPOUND: Cn1c(=O)cc(NCc2ccc(Cl)cc2)[nH]c1=O
TGI: > 100 µM
//
COMPOUND: COc1cc(/C=C/c2cc(/C=C/c3ccc(O)c(OC)c3)n(-c3c(C)cccc3C)c(=O)n2)ccc1O
TGI: 5.77 µM
//
COMPOUND: O=C1OCC(c2cccs2)=C1Cl
TGI: > 100 µM
//
COMPOUND: CCC(C)n1cc(C)c2c(C(=O)NCc3c(C)cc(C)[nH]c3=O)cc(Br)cc21 (stereo not given)
TGI: > 100 µM
//
COMPOUND: CC1(C)CC[C@]2(C)CC=C3[C@]4(C)CC[C@H]5C(C)(C)C(=O)CC[C@]5(C)[C@H]4CC[C@@]3(C)[C@H]2C1
TGI: > 100 µM
//
COMPOUND: NC(=O)C1=NNc2ccccc2C(=O)N1c1ccccc1
TGI: > 100 µM
//
COMPOUND: O=c1[nH]c(=O)n(C2CC(O)C(CO)O2)cc1OCCCc1ccccc1 (stereo not given)
TGI: > 100 µM

# context switch: different compound, same TGI
Query TGI for `Cc1c(CCOC=O)c(=O)[nH]c2nncn12`
> 100 µM
